Values were extracted from patent US6413521B1.

# System: Con A Oo12 ApM activity
# assay_protocol: Con A O12 aminopeptidase inhibition assay, ApM (leucine p-nitroanilide)
# Type: biochemical, Ostertagia ostertagi
# condition_details: inhibitor 50 μM
Non-standard residues stand in square brackets, D forms with d. Residues, ends and D or L forms follow the SMILES beside them. *: point of attachment. Sta = CC(C)C[C@H](N)[C@@H](O)CC(=O)O; Isovaleryl = CC(C)CC(=O)*

compound | Leu-pNA enzyme activity, nmoles/min/10 μl ConA O12
CC(C)C[C@@H](N)[C@H](O)C(=O)N[C@H](C(=O)N[C@H](C(=O)N[C@@H](CC(=O)O)C(=O)O)C(C)C)C(C)C | 0.074
CC(C)C[C@H](NC(=O)[C@H]1O[C@@H]1C(=O)O)C(=O)NCCCCN=C(N)N | 1.241
CC(C)CC(=O)N[C@H](C(=O)N[C@H](C(=O)N[C@@H](CC(C)C)[C@@H](O)CC(=O)N[C@@H](C)C(=O)N[C@@H](CC(C)C)[C@@H](O)CC(=O)O)C(C)C)C(C)C [Pepstatin, pepstatin] (Isovaleryl-VV[Sta]A[Sta]-OH) | 1.263
CC(C)C[C@H](NC(=O)[C@@H](O)[C@H](N)Cc1ccccc1)C(=O)O | 0.045

---

The entries below are paired with their reported Leu-pNA enzyme inhibition.
# Tested on: Con A Oo12 ApM activity
# assay_protocol: Con A O12 aminopeptidase inhibition assay, ApM (leucine p-nitroanilide)
# Assay type: biochemical, Ostertagia ostertagi
# condition_details: inhibitor 50 μM

chemical_string | unit_string | Leu-pNA enzyme inhibition
CC(C)C[C@H](NC(=O)[C@@H](O)[C@H](N)Cc1ccccc1)C(=O)O | % | 96
CC(C)C[C@@H](N)[C@H](O)C(=O)N[C@H](C(=O)N[C@H](C(=O)N[C@@H](CC(=O)O)C(=O)O)C(C)C)C(C)C | % | 95

---

# Tested on: Con A Oo12 ApA activity
# assay_protocol: Con A O12 aminopeptidase inhibition assay, ApA (α-glutamic p-nitroanilide)
# Format: biochemical, Ostertagia ostertagi
# condition_details: inhibitor 50 μM
Non-standard residues stand in square brackets, D forms with d. Residues, ends and D or L forms follow the SMILES beside them. *: point of attachment. Sta = CC(C)C[C@H](N)[C@@H](O)CC(=O)O; Isovaleryl = CC(C)CC(=O)*

compound | assayed_system | α-Glu-pNA enzyme inhibition [%]
CC(C)C[C@H](NC(=O)[C@@H](O)[C@H](N)Cc1ccccc1)C(=O)O | Con A Oo12 ApA activity | 48
CC(C)C[C@H](NC(=O)[C@H]1O[C@@H]1C(=O)O)C(=O)NCCCCN=C(N)N | Con A Oo12 ApA activity | 3
CC(C)C[C@@H](N)[C@H](O)C(=O)N[C@H](C(=O)N[C@H](C(=O)N[C@@H](CC(=O)O)C(=O)O)C(C)C)C(C)C | Con A Oo12 ApA activity | 36
CC(C)CC(=O)N[C@H](C(=O)N[C@H](C(=O)N[C@@H](CC(C)C)[C@@H](O)CC(=O)N[C@@H](C)C(=O)N[C@@H](CC(C)C)[C@@H](O)CC(=O)O)C(C)C)C(C)C [Pepstatin, pepstatin] (Isovaleryl-VV[Sta]A[Sta]-OH) | Con A Oo12 ApA activity | 6

---

# Test system: Con A Oo12 ApA activity
# assay_protocol: Con A O12 aminopeptidase inhibition assay, ApA (α-glutamic p-nitroanilide)
# Type: biochemical, Ostertagia ostertagi
# condition_details: inhibitor 50 μM
# Experimental: The effect of various protease inhibitors on Oo12 activity was assayed and included amastatin (aminopeptidase inhibitor), actinonin (aminopeptidase inhibitor), bestatin (aminopeptidase inhibitor), EDTA (metallo-protease inhibitor), E64 (cysteine protease inhibitor), pepstatin (aspartic protease inhibitor), 1,10 phenanthroline (metallo-protease inhibitor) and 3,4-dichloroisocoumarin (DCI, serine protease inhibitor). […] The OD change per minute per 10 μl sample was calculated. […]
Non-standard residues stand in square brackets, D forms with d. Residues, ends and D or L forms follow the SMILES beside them. *: point of attachment. Sta = CC(C)C[C@H](N)[C@@H](O)CC(=O)O; Isovaleryl = CC(C)CC(=O)*

compound | assayed_system | α-Glu-pNA enzyme activity
CC(C)C[C@H](NC(=O)[C@H]1O[C@@H]1C(=O)O)C(=O)NCCCCN=C(N)N [E64] | Con A Oo12 ApA activity | 0.323 nmoles/min/10 μl ConA O12
CC(C)C[C@H](NC(=O)[C@@H](O)[C@H](N)Cc1ccccc1)C(=O)O [Bestatin, bestatin] | Con A Oo12 ApA activity | 0.174 nmoles/min/10 μl ConA O12
CC(C)C[C@@H](N)[C@H](O)C(=O)N[C@H](C(=O)N[C@H](C(=O)N[C@@H](CC(=O)O)C(=O)O)C(C)C)C(C)C [Amaststin, amastatin] | Con A Oo12 ApA activity | 0.205 nmoles/min/10 μl ConA O12
CC(C)CC(=O)N[C@H](C(=O)N[C@H](C(=O)N[C@@H](CC(C)C)[C@@H](O)CC(=O)N[C@@H](C)C(=O)N[C@@H](CC(C)C)[C@@H](O)CC(=O)O)C(C)C)C(C)C [Pepstatin, pepstatin] (Isovaleryl-VV[Sta]A[Sta]-OH) | Con A Oo12 ApA activity | 0.315 nmoles/min/10 μl ConA O12
